Biological target: Notum (Homo sapiens, UniProt Q6P988, C330S)
Sequence (Q6P988 81-451 C330S): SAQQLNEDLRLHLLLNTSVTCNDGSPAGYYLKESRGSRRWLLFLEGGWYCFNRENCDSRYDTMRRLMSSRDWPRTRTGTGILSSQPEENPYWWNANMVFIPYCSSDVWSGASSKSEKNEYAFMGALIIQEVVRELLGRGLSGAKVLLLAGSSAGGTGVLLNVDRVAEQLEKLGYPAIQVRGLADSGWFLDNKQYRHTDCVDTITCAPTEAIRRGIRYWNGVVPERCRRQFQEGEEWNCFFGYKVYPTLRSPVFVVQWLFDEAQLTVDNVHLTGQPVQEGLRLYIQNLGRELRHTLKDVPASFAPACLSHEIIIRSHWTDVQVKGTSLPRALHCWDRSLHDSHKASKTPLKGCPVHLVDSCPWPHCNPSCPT
Experiment: biochemical
Conditions: IC50 (µM), supplementary CSV, Notum IC50 values for 1–58

{"Molecule": "CCOc1ccc(CC(=O)O)cc1 [compound 48]", "IC50": "> 1000 µM"}
{"Molecule": "Nc1ccc(S(=O)(=O)Nc2ccccn2)cc1 [compound 11]", "IC50": "> 1000 µM"}
{"Molecule": "c1cc2c(cc1CNC[C@H]1CCCO1)OCO2 [compound 32]", "IC50": "1000 µM"}
{"Molecule": "O=S1(=O)CCN(Cc2ccco2)CC1 [compound 30]", "IC50": "> 1000 µM"}
{"Molecule": "O=C1CN(C(=O)COc2ccccc2)CCN1 [compound 56]", "IC50": "> 100 µM"}
{"Molecule": "O=C(NCCc1ccncc1)NC1CCCCC1 [compound 9]", "IC50": "> 1000 µM"}
{"Molecule": "O=C(O)COc1ccc(N2C(=O)CCC2=O)cc1 [compound 39]", "IC50": "> 1000 µM"}
{"Molecule": "CCNC(=O)Nc1cc(C)on1 [compound 1]", "IC50": "> 1000 µM"}
{"Molecule": "CC(=O)Nc1ccc(OCC(=O)O)cc1 [compound 27, (4-Acetamidophenoxy)acetic acid]", "IC50": "> 1000 µM"}
{"Molecule": "CCC(=O)Nc1ccc(C)cc1O [compound 42]", "IC50": "> 1000 µM"}

---

Target: Notum (Homo sapiens, UniProt Q6P988, C330S)
Conditions: LE = 1.4(−pIC50)/HAC

{"Compound": "COc1cc(-c2ccccc2)nc(N)n1", "LE (ligand efficiency)": 0.32}
{"Compound": "NCc1cc(-c2ccccc2)no1", "LE (ligand efficiency)": 0.53}
{"Compound": "CCc1ccc(OCC(=O)N2CCCCC2)cc1", "LE (ligand efficiency)": 0.30}
{"Compound": "COc1ccc(-c2cc[nH]n2)c(O)c1", "LE (ligand efficiency)": 0.51}
{"Compound": "Cl.Oc1c(CN2CCOCC2)ccc2ccccc12", "LE (ligand efficiency)": 0.33}
{"Compound": "Oc1c(F)cc(F)cc1-c1cc[nH]n1", "LE (ligand efficiency)": 0.55}
{"Compound": "CC1CCN(Cc2c[nH]c3ccccc23)CC1", "LE (ligand efficiency)": 0.32}
{"Compound": "Cc1ccc(CN(C)Cc2ccccc2)o1", "LE (ligand efficiency)": 0.26}
{"Compound": "N#Cc1ccc(Cn2cnc3ccccc32)cc1", "LE (ligand efficiency)": 0.25}
{"Compound": "N#CNc1nc2ccccc2[nH]1", "LE (ligand efficiency)": 0.56}
{"Compound": "NNC(=O)c1ccccc1OCc1ccccc1", "LE (ligand efficiency)": 0.27}
{"Compound": "CCc1noc(C)c1C(=O)Nc1cc(C)on1", "LE (ligand efficiency)": 0.25}
{"Compound": "Cc1nc2ccccn2c1C(=O)NCC(C)C", "LE (ligand efficiency)": 0.26}
{"Compound": "Nc1ccccc1OCc1ccccc1", "LE (ligand efficiency)": 0.33}
{"Compound": "COCC(=O)NCc1ccccc1", "LE (ligand efficiency)": 0.45}
{"Compound": "Nc1ccccc1Nc1ccccn1", "LE (ligand efficiency)": 0.33}
{"Compound": "c1cc2c(cc1CNC[C@H]1CCCO1)OCO2", "LE (ligand efficiency)": 0.25}
{"Compound": "Cc1ccc(C)c(OC(=O)c2ccncc2)c1", "LE (ligand efficiency)": 0.37}
{"Compound": "O=C(NCCc1ccc(O)cc1)c1ccccn1", "LE (ligand efficiency)": 0.24}
{"Compound": "Cn1nc(O)cc1Nc1ccccc1", "LE (ligand efficiency)": 0.33}
{"Compound": "C[C@@H](Oc1ccc(-c2ccccc2)cc1)C(=O)O", "LE (ligand efficiency)": 0.29}
{"Compound": "Nc1ccc(NCc2cccnc2)c(C(=O)O)c1", "LE (ligand efficiency)": 0.32}
{"Compound": "CCOc1cccc(-c2nnc(N)s2)c1", "LE (ligand efficiency)": 0.38}
{"Compound": "COC(=O)c1ccccc1Oc1ccc(N)cc1 [compound 6, Methyl 2-(4-aminophenoxy)benzoate]", "LE (ligand efficiency)": 0.28}
{"Compound": "N#CCN1CCN(c2cccc(Cl)c2)CC1", "LE (ligand efficiency)": 0.28}
{"Compound": "C[C@H]1CCCCN1C(=O)N1CCOCC1", "LE (ligand efficiency)": 0.29}
{"Compound": "O=C(O)Cc1ccc(-c2ccccc2)cc1 [compound 14, 2-[(1,1’-Biphenyl)-4-yl]acetic acid]", "LE (ligand efficiency)": 0.33}
{"Compound": "CC(=O)Nc1ccc(Nc2ccccc2)cc1 [compound 25, N-(4-Anilinophenyl)acetamide]", "LE (ligand efficiency)": 0.36}
{"Compound": "c1cnc(Oc2ccc(-c3cc[nH]n3)cc2)nc1 [compound 5, 2-[4-(1H-Pyrazol-3-yl)phenoxy]pyrimidine]", "LE (ligand efficiency)": 0.25}
{"Compound": "COc1ccc(CNC(=O)[C@@H]2CCCO2)cc1", "LE (ligand efficiency)": 0.34}
{"Compound": "CC(=O)Nc1cccc2nonc12", "LE (ligand efficiency)": 0.42}
{"Compound": "COC(=O)COc1ccc(C#N)cc1", "LE (ligand efficiency)": 0.34}
{"Compound": "Nc1nonc1N1CCCCC1", "LE (ligand efficiency)": 0.46}
